- Test system: DU-145
- assayMethodText: Antiproliferative activity against human DU-145 cells assessed as cell growth inhibition measured after 48 hrs by SRB assay
- Assay type: functional
Exercise: for every item that follows, state its recorded GI50.
Write the number in nM without appending the unit.

Which GI50 is reported for this compound? C#CCOc1cccc(/C=C/C(=O)Nc2c(/C=C\c3cc(OC)c(OC)c(OC)c3)ccc(OC)c2O)c1
96400

Which GI50 is reported for this compound? COc1ccc(/C=C\c2cc(OC)c(OC)c(OC)c2)c(NC(=O)/C=C/c2cccc(O)c2)c1O
70

Which GI50 is reported for this compound? COc1ccc(/C=C\c2cc(OC)c(OC)c(OC)c2)c(NC(=O)/C=C/c2cc(OC)c(OC)c(OC)c2)c1O
95

Which GI50 is reported for this compound? COc1ccc(/C=C\c2cc(OC)c(OC)c(OC)c2)c(NC(=O)/C=C/c2ccc(F)cc2)c1O
83

Which GI50 is reported for this compound? C=CCOc1cccc(/C=C/C(=O)Nc2c(/C=C\c3cc(OC)c(OC)c(OC)c3)ccc(OC)c2O)c1
85

Which GI50 is reported for this compound? COc1ccc(/C=C/C(=O)Nc2c(/C=C\c3cc(OC)c(OC)c(OC)c3)ccc(OC)c2O)cc1[N+](=O)[O-]
64700

Which GI50 is reported for this compound? COc1cc(/C=C/C(=O)Nc2c(/C=C\c3cc(OC)c(OC)c(OC)c3)ccc(OC)c2O)ccc1O
72

Which GI50 is reported for this compound? COc1ccc(/C=C\c2cc(OC)c(OC)c(OC)c2)c(NC(=O)/C=C/c2ccc(Cl)cc2)c1O
54100

Which GI50 is reported for this compound? COc1cc(/C=C/C(=O)Nc2c(/C=C\c3cc(OC)c(OC)c(OC)c3)ccc(OC)c2O)ccc1N
85

Which GI50 is reported for this compound? COc1ccc(/C=C/C(=O)Nc2c(/C=C\c3cc(OC)c(OC)c(OC)c3)ccc(OC)c2O)cc1OC
60

Which GI50 is reported for this compound? COc1ccc(/C=C\c2cc(OC)c(OC)c(OC)c2)c(NC(=O)/C=C/c2ccc(F)c(F)c2)c1O
45

Which GI50 is reported for this compound? COc1ccc(/C=C\c2cc(OC)c(OC)c(OC)c2)c(NC(=O)/C=C/c2ccc([N+](=O)[O-])cc2)c1O
85

Which GI50 is reported for this compound? COc1cc(/C=C/C(=O)Nc2c(/C=C\c3cc(OC)c(OC)c(OC)c3)ccc(OC)c2O)ccc1[N+](=O)[O-]
75

Which GI50 is reported for this compound? COc1ccc(/C=C/C(=O)Nc2c(/C=C\c3cc(OC)c(OC)c(OC)c3)ccc(OC)c2O)cc1N
79

Which GI50 is reported for this compound? COc1ccc(/C=C\c2cc(OC)c(OC)c(OC)c2)cc1O
46

Which GI50 is reported for this compound? COc1ccc(/C=C/C(=O)Nc2c(/C=C\c3cc(OC)c(OC)c(OC)c3)ccc(OC)c2O)cc1O
117
